- system_tested: PI3K alpha (Homo sapiens)
- Construct: p85(iSH2) fusion partner (see partner chain) (N); His tag (C); Tn5 (Trichoplusia ni) or TiniPro insect cells
- Sequence (P42336 with tags, fused parts or gaps limits assumed): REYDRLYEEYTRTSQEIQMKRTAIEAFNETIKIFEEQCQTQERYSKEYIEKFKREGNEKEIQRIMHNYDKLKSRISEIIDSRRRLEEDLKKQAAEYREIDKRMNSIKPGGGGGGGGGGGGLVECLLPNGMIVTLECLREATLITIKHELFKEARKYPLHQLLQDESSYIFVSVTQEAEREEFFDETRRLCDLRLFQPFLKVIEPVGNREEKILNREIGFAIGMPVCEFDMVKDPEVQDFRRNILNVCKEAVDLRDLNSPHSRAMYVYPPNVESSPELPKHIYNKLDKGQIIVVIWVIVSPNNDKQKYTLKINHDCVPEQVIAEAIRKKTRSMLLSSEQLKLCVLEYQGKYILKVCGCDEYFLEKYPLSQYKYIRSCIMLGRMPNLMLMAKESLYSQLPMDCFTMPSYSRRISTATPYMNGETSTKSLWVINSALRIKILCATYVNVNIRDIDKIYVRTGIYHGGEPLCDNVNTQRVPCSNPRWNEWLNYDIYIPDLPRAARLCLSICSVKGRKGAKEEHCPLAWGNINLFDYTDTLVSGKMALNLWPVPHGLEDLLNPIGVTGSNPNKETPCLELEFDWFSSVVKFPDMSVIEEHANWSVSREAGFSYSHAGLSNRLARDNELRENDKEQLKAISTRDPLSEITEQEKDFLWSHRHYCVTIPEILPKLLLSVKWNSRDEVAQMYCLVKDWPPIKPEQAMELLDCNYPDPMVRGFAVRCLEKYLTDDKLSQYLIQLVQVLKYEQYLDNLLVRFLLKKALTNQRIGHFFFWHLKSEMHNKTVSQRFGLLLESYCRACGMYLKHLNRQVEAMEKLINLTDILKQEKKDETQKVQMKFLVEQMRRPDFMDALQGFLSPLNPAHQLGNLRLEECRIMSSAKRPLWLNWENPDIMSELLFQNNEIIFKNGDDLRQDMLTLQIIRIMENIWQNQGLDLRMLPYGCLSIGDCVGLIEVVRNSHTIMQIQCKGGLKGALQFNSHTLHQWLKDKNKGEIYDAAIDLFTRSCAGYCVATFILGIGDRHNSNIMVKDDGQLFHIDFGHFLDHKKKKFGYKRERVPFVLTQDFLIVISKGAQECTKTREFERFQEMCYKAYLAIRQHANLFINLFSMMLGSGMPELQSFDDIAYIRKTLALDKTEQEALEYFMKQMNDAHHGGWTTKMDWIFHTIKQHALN
- method_summary: PI3K alpha kinase assay (Kinase-Glo luminescence)
pIC50: −log10 of the molar value.
measurement_kind: pIC50

{"smiles_data": "COCc1cncc(-c2ccc3ncc4c(c3c2)n(-c2cn(C)nc2Cl)c(=O)n4C)c1", "system_tested": "PI3K alpha (Homo sapiens)", "pIC50": 7.52}
{"smiles_data": "Cc1nn(C)cc1-n1c(=O)n(C)c2cnc3ccc(-c4ccc(-n5cccn5)nc4)cc3c21", "system_tested": "PI3K alpha (Homo sapiens)", "pIC50": 7.32}
{"smiles_data": "CCOc1ccc(-c2ccc3ncc4c(c3c2)n(-c2cn(CC(=O)N3CCC3)nc2C)c(=O)n4C)cn1", "system_tested": "PI3K alpha (Homo sapiens)", "pIC50": 7.89}
{"smiles_data": "CNc1cc(-c2ccc3ncc4c(c3c2)n(-c2cn(C)nc2C)c(=O)n4C)cnc1C", "system_tested": "PI3K alpha (Homo sapiens)", "pIC50": 8.22}
{"smiles_data": "CNc1cc(-c2ccc3ncc4c(c3c2)n(-c2cn(C)nc2C)c(=O)n4C)cnc1CO", "system_tested": "PI3K alpha (Homo sapiens)", "pIC50": 8.05}
{"smiles_data": "CCNc1cc(-c2ccc3ncc4c(c3c2)n(-c2cn(C)nc2C)c(=O)n4C)cnc1Cl", "system_tested": "PI3K alpha (Homo sapiens)", "pIC50": 7.82}

a = CCN(C)C(=O)Cn1cc(-n2c(=O)n(C)c3cnc4ccc(-c5ccc(-n6cccn6)cc5)cc4c32)c(C)n1
b = COc1ncc(-c2ccc3ncc4c(c3c2)n(-c2cn(C)nc2C)c(=O)n4C)cc1F
Query block: For the two items a and b , which reports the higher pIC50 value? // output: label of the selected item
Result block: b

---

- System: PKB Ser473 phosphorylation in Rat1-myr-HA-p110 alpha cells
- method_summary: Reverse protein array assay, PKB Ser473 phosphorylation in Rat1-myr-p110 alpha cells
- Type: cell-based
- particulars: 0.5 h, pAkt Ser473, 30 minutes compound incubation, read-out: p-PKB IC50
measurement_kind: IC50 (nM)

The cases that follow already have their IC50 on record.
{"compound": "CCNc1ncc(-c2ccc3ncc4c(c3c2)n(-c2c(C)nn(C)c2C)c(=O)n4C)cc1C(F)(F)F [Example 145.1]", "measurement_kind": "IC50", "units_label": "nM", "measured_value": 69}
{"compound": "Cc1nn(C)cc1-n1c(=O)n(C)c2cnc3ccc(-c4cnc5ccn(C)c5c4)cc3c21 [Example 129]", "measurement_kind": "IC50", "units_label": "nM", "measured_value": 21}

I = [2H]C([2H])([2H])OCc1ncc(-c2ccc3ncc4c(c3c2)n(-c2cn(C)nc2C)c(=O)n4C)cc1OCC [Example 198]
II = CNC(=O)c1cc(-c2ccc3ncc4c(c3c2)n(-c2cn(C)nc2C)c(=O)n4C)cnc1OC [Example 125.1]
III = CCOc1ccc(-c2ccc3ncc4c(c3c2)n(-c2c(C)nn(CCOC)c2C)c(=O)n4C)cn1 [Example 3.11]
Query block: Order by IC50, ascending. Lab note: final answer is the ordered label list.
Result block: I, II, III
(I: 28 nM, II: 75 nM, III: 237 nM)

---

- system_tested: PI3K delta (Homo sapiens)
- Construct: for the full-length p110-d subunit are generated and fused by overlapping PCR; p85(iSH2) fusion partner (see partner chain) (N); His tag (C); Tn5 (Trichoplusia ni) or TiniPro insect cells
- Sequence (O00329 with tags, fused parts or gaps limits assumed): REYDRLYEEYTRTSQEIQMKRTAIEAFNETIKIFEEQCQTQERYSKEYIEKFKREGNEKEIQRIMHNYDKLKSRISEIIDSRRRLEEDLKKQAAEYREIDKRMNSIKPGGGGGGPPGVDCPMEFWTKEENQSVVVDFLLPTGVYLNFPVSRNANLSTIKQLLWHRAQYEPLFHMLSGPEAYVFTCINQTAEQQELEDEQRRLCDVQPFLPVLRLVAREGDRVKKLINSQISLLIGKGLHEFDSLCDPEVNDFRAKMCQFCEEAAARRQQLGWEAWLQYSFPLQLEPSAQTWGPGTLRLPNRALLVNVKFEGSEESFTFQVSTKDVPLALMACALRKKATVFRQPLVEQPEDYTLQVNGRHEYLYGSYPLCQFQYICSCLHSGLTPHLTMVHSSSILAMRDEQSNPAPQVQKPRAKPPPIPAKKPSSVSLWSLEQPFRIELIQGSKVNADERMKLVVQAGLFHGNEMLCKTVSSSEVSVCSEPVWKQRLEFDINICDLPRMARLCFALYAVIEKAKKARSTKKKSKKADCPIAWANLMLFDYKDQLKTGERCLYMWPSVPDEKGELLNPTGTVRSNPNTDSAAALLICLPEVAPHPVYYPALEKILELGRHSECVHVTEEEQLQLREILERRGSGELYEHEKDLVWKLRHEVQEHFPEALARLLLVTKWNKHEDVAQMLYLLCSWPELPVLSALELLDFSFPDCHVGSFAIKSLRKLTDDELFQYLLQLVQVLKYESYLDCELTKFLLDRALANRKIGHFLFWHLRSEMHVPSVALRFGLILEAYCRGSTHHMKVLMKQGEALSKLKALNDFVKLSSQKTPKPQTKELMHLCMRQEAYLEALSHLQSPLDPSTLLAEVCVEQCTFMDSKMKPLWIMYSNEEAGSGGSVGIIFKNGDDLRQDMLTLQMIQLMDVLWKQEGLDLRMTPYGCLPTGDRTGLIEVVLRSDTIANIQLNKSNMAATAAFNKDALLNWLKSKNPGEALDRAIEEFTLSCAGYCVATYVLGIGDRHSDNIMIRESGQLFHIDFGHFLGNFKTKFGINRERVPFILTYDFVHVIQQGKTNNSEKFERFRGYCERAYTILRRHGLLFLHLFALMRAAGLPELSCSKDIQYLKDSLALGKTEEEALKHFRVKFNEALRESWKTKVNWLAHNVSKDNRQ
- method_summary: PI3K delta kinase assay (Kinase-Glo luminescence)
measurement_kind: IC50 (nM)

P = Cc1nn(C)cc1-n1c(=S)n(C)c2cnc3ccc(-c4cccnc4)cc3c21
Q = CCOc1ccc(-c2ccc3ncc4c(c3c2)n(-c2c(C)nn(C)c2C)c(=O)n4C)cn1
R = CCN1C(=O)OCc2ncc(-c3ccc4ncc5c(c4c3)n(-c3cn(C)nc3C)c(=O)n5C)cc21
S = Cc1nn(C(C)C)cc1-n1c(=O)n(C)c2cnc3ccc(-c4cnc(N)c(C(F)(F)F)c4)cc3c21
T = COc1ncc(-c2ccc3ncc4c(c3c2)n(-c2cn(C)nc2C)c(=O)n4C)cc1C#N
Query block: Order each entry by recorded IC50, climbing from the minimum. Answer format: the labels, in the requested order.
Result block: S, R, P, T, Q

P = CNc1ccc(-c2ccc3ncc4c(c3c2)n(-c2cn(C(C)C)nc2C)c(=S)n4C)cn1
Q = COc1ccc(-c2ccc3ncc4c(c3c2)n(-c2cn(CC(=O)N(C)C)nc2C)c(=O)n4C)cn1
Query block: Would you kindly point out which of P and Q has the smaller IC50 figure? Response format: the label of the selected entry.
Result block: Q
(Q: 26 nM, P: 147 nM)

---

- system_tested: mTOR (Homo sapiens, UniProt P42345)
- Construct: purchased Invitrogen Corporation (Carlsbad/CA, USA) PV4753
- Sequence (P42345 1360-2549 limits assumed): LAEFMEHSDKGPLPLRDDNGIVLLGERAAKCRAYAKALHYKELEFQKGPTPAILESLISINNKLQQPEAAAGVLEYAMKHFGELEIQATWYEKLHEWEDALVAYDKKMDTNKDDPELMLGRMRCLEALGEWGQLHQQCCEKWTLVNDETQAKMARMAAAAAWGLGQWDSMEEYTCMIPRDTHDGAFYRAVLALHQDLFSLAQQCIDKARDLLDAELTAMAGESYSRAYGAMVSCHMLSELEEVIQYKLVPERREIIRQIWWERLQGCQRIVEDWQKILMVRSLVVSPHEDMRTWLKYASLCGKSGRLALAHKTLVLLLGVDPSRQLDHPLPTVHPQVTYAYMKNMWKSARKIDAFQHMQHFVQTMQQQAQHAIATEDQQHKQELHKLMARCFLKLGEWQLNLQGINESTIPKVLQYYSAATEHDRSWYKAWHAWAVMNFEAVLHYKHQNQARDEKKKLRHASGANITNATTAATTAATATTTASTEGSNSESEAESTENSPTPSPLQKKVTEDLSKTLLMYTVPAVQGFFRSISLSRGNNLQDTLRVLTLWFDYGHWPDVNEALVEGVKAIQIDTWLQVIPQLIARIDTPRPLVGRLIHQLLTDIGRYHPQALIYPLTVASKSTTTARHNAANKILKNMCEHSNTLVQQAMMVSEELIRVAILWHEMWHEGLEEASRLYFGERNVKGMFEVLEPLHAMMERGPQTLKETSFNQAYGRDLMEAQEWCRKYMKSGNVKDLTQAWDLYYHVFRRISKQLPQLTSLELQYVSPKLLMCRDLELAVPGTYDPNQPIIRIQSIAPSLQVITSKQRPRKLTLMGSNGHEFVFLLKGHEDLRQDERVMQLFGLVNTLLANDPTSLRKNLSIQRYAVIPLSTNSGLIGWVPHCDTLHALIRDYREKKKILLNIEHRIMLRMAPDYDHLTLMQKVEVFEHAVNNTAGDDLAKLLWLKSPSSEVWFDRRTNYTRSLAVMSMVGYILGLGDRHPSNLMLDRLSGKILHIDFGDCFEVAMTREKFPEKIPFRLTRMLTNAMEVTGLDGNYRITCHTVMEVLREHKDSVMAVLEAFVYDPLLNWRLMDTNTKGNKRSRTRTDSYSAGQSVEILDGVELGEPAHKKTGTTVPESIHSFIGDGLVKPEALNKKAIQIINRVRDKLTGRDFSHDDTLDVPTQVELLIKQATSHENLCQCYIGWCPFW
- method_summary: Biochemical assay for m-TOR by TR-FRET
- particulars: 8 μM ATP, 400 nM GFP-4EBP1, 0.5 nM mTOR
measurement_kind: IC50 (nM)

Examples with their reported IC50 follow.
{"smiles_data": "Cc1nn(CC(=O)N(C)C)cc1-n1c(=O)n(C)c2cnc3ccc(-c4ccccc4)cc3c21", "measurement_kind": "IC50", "units_label": "nM", "measured_value": 19}
{"smiles_data": "Cc1nn(C)cc1-n1c(=O)n(C)c2cnc3ccc(-c4ccc(N)nc4)cc3c21", "measurement_kind": "IC50", "units_label": "nM", "measured_value": 4}

P = CCN(C)C(=O)Cn1cc(-n2c(=O)n(C)c3cnc4ccc(-c5cnc(N6CCCC6)nc5)cc4c32)c(C)n1
Q = COc1cc(-c2ccc3ncc4c(c3c2)n(-c2cn(C(C)C)nc2C)c(=O)n4C)cnc1CO
Query block: Which value of IC50 is numerically greater: that of P or that of Q ? Output the label that corresponds to your choice.
Result block: Q

---

- system_tested: PI3K delta (Homo sapiens)
- Construct: for the full-length p110-d subunit are generated and fused by overlapping PCR; p85(iSH2) fusion partner (see partner chain) (N); His tag (C); Tn5 (Trichoplusia ni) or TiniPro insect cells
- method_summary: PI3K delta kinase assay (Kinase-Glo luminescence)
measurement_kind: IC50 (nM)

1 = CCn1cc(-n2c(=O)n(C)c3cnc4ccc(-c5cnc(CO)c(NC)c5)cc4c32)c(C)n1 [Example 158.5]
2 = CCNc1cc(-c2ccc3ncc4c(c3c2)n(-c2cn(C)nc2C)c(=O)n4C)cnc1Cl [Example 153.2]
3 = Cc1nn(C)cc1-n1c(=O)n(C)c2cnc3ccc(-c4cnc5[nH]ccc5c4)cc3c21 [Example 36]
4 = Cc1nn(C)cc1-n1c(=O)n(C)c2cnc3ccc(-c4cnc(CO)c(Cl)c4)cc3c21 [Example 238]
Query block: Reorder the records above by IC50 so that values decrease. Use the labels to give the ranking in the order requested.
Result block: 4, 3, 1, 2
(4: 473 nM, 3: 24 nM, 1: 7 nM, 2: 3 nM)

A = [2H]C([2H])([2H])OCc1ncc(-c2ccc3ncc4c(c3c2)n(-c2cn(C)nc2C)c(=O)n4C)cc1OCC [Example 198]
B = Cc1nn(C)cc1-n1c(=O)n(C)c2cnc3ccc(-c4ccc(C(N)=O)nc4)cc3c21 [Example 14]
Query block: I'm curious, which of these has a smaller IC50 number: A or B ? Write down the label attached to your selection.
Result block: A

a = CCn1cc(-n2c(=O)n(C)c3cnc4ccc(-c5cncc(C6(C#N)CCC6)c5)cc4c32)c(C)n1 [Example 221.2]
b = CNc1ncc(-c2ccc3ncc4c(c3c2)n(-c2c(C)nn(C)c2C)c(=O)n4C)cc1F [Example 141.1]
Query block: Given the two records a and b , choose the one whose IC50 value is lower. Provide the label of your selected option as the answer.
Result block: a
(a: 6 nM, b: 44 nM)

I = Cc1nn(C)c(C)c1-n1c(=O)n(C)c2cnc3ccc(-c4cnc(N)c(Cl)c4)cc3c21 [Example 148.1]
II = COCCN(C)C(=O)Cn1cc(-n2c(=O)n(C)c3cnc4ccc(-c5ccccc5)cc4c32)c(C)n1 [Example 137]
III = CCOc1cncc(-c2ccc3ncc4c(c3c2)n(-c2cn(CC(=O)N(C)C)nc2C)c(=O)n4C)c1 [Example 56.2]
Query block: Write the entries in order, lowest recorded IC50 first. Thanks in advance for listing the labels in the requested order.
Result block: I, III, II

---

- system_tested: PI3K beta (Homo sapiens, UniProt P42338)
- Construct: for the full-length p110-b subunit are generated and fused by overlapping PCR; p85(iSH2) fusion partner (see partner chain) (N); His tag (C); Tn5 (Trichoplusia ni) or TiniPro insect cells
- Sequence (P42338 with tags, fused parts or gaps limits assumed): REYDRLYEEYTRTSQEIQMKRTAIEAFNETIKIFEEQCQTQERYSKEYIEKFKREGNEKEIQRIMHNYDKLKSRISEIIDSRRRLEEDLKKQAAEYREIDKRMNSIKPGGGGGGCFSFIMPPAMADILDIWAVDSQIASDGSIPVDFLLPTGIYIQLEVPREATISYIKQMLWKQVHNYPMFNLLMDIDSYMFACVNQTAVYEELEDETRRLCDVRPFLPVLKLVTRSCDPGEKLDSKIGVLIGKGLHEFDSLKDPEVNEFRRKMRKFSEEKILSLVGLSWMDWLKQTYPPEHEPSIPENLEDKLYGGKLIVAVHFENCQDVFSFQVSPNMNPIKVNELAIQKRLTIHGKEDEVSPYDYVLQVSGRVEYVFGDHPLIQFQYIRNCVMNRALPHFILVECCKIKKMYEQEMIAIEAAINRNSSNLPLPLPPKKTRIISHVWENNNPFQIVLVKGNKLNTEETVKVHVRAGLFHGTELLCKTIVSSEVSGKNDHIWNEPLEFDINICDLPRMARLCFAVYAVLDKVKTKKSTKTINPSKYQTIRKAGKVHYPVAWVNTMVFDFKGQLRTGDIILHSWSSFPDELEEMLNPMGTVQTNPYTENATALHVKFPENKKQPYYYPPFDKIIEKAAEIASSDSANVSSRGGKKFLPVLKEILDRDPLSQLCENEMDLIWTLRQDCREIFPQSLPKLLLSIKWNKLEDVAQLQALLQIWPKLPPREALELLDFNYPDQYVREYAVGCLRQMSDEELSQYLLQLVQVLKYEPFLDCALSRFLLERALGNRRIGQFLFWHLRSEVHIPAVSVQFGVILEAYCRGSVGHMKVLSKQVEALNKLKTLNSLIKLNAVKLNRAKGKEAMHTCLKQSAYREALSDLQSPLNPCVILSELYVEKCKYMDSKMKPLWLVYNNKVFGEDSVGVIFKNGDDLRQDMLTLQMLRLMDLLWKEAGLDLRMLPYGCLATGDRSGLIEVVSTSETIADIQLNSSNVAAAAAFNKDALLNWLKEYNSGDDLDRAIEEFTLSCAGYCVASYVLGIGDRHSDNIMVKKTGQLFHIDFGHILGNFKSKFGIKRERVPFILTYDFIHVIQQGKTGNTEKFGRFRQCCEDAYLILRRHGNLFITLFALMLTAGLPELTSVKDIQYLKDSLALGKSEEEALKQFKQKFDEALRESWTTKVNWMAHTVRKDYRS
- method_summary: PI3K beta kinase assay (Kinase-Glo luminescence)
pIC50: −log10 of the molar value.
measurement_kind: pIC50

Solved entries:
{"smiles_data": "Cc1nn(C)cc1-n1c(=O)n(C)c2cnc3ccc(-c4ccccc4)cc3c21", "system_tested": "PI3K beta (Homo sapiens, UniProt P42338)", "pIC50": 6.01}
{"smiles_data": "Cc1ncc(-c2ccc3ncc4c(c3c2)n(-c2cn(C)nc2C)c(=O)n4C)cc1O", "system_tested": "PI3K beta (Homo sapiens, UniProt P42338)", "pIC50": 8.05}
{"smiles_data": "CCOc1ccc(-c2ccc3ncc4[nH]c(=O)n(-c5cn(C)nc5C)c4c3c2)cn1", "system_tested": "PI3K beta (Homo sapiens, UniProt P42338)", "pIC50": 6.86}
{"smiles_data": "Cc1ncc(-c2ccc3ncc4c(c3c2)n(-c2cn(C)nc2C)c(=O)n4C)cc1OC(CF)CF", "system_tested": "PI3K beta (Homo sapiens, UniProt P42338)", "pIC50": 8.30}
{"smiles_data": "COc1ccc(-c2ccc3ncc4c(c3n2)n(-c2cc(C)nn2C)c(=O)n4C)cc1OC", "system_tested": "PI3K beta (Homo sapiens, UniProt P42338)", "pIC50": 8.10}

a = Cc1nn(C)cc1-n1c(=O)n(C)c2cnc3ccc(-c4cncc(OC(F)F)c4)cc3c21
b = COCc1cc(-c2ccc3ncc4c(c3c2)n(-c2cn(C(C)C)nc2C)c(=O)n4C)cnc1N
c = COc1ccc(-c2ccc3ncc4c(c3c2)n(-c2cn(C(C)C)nc2C)c(=O)n4C)cc1OC
Query block: rank_up(items): orders items by reported pIC50 in ascending numerical order. List the labels according to the requested ordering.
Result block: c, b, a

Cited source for all entries: patent US20140005163A1
